# Tested on: PBMC (polyclonal gluten-specific T cells) of paediatric and adult CD patients
# procedure-summary: IFN-γ ELISpot of PBMC after 3 day oral wheat challenge (SFU, % of maximal peptide response, dominance scores, EC50; Examples 5-6)
# Type: cell-based, human
# recorded-conditions: patient Y, 6-10 yrs; after oral wheat challenge; cut-off 10 SFU
Please use True whenever IFN-γ ELISpot response is not below 8 SFU, and False whenever it is.

Some solved cases for reference:
[
  {
    "sequence-data": "LPYPQPELPYPQP [Peptide W01]",
    "class-assignment": "True"
  },
  {
    "sequence-data": "PIPQQPQQPFPLQ",
    "class-assignment": "False"
  },
  {
    "sequence-data": "FLQPEQPFPEQPEQPYPEQPEQPFPQ",
    "class-assignment": "False"
  },
  {
    "sequence-data": "PQQPQQSFPQQQQPA",
    "class-assignment": "False"
  },
  {
    "sequence-data": "LQPFPQPELPYPQPQ",
    "class-assignment": "True"
  }
]

Test whether the sequence FPQPEQEFPQPQQ records IFN-γ ELISpot response of 8 SFU or higher.
False

Test whether the sequence PFPLQPEQPFPQP records IFN-γ ELISpot response of 8 SFU or higher.
True

Test whether the sequence QFIQPEQPFPQQ records IFN-γ ELISpot response of 8 SFU or higher.
False

Test whether the sequence QPFPQPEQPIPVQ records IFN-γ ELISpot response of 8 SFU or higher.
True

Test whether the sequence QPFPQPEQPFPWQP records IFN-γ ELISpot response of 8 SFU or higher.
True

Test whether the sequence PFPEQPEQPYPQQ records IFN-γ ELISpot response of 8 SFU or higher.
False

Test whether the sequence GIIQPQQPAQL records IFN-γ ELISpot response of 8 SFU or higher.
False

Test whether the sequence LQPFPQPELPYSQP records IFN-γ ELISpot response of 8 SFU or higher.
True

Test whether the sequence GQSGYYPTSPQQS records IFN-γ ELISpot response of 8 SFU or higher.
False

Test whether the sequence QPFPQPQQPIPVQ [Peptide W04] records IFN-γ ELISpot response of 8 SFU or higher.
False

Test whether the sequence PEQTFPEQPQLPF records IFN-γ ELISpot response of 8 SFU or higher.
False

Test whether the sequence YEVIRSLVLRTLPN records IFN-γ ELISpot response of 8 SFU or higher.
False

Test whether the sequence TIPEQPEQPFPLQ records IFN-γ ELISpot response of 8 SFU or higher.
False

Test whether the sequence LPYPQPQLPYPQP records IFN-γ ELISpot response of 8 SFU or higher.
True

Test whether the sequence FPQPQQQFPQPQQ records IFN-γ ELISpot response of 8 SFU or higher.
False

Test whether the sequence LQPFPQPELPFPQP [Peptide W06] records IFN-γ ELISpot response of 8 SFU or higher.
False
